Assay: TD-6450 phase I clinical study (SAD/MAD): pharmacokinetics
Format: in vivo, human
Conditions: male, human, plasma, oral, 0.5 mg, Male subjects, SAD arm NCT02022306, Dose 0.50, 144 Hours; read-out: Concentration
readout: concentration at 144 h

[Q] I am curious: what concentration at 144 h value has been reported for CNC(=O)N1C[C@@H](C)N(c2ccc(C(=O)Nc3ccc(-c4ccc(-c5c[nH]c([C@@H]6CCCN6C(=O)[C@@H](NC(=O)OC)C(C)C)n5)cc4)c(OC(F)(F)F)c3)cn2)C[C@@H]1C [TD-6450] ?
[A] 0 ng/mL

----------
Test: TD-6450 phase I clinical study (SAD/MAD): pharmacokinetics
Assay type: in vivo, human
Conditions: female, human, plasma, oral, 15 mg, Female subjects, SAD arm NCT02022306, Dose 15.00, 48 Hours; read-out: Concentration
readout: concentration at 48 h (ng/mL)
Give the value, in units of ng/mL, as a plain number.

[Q] I am curious: what concentration at 48 h value has been reported for CNC(=O)N1C[C@@H](C)N(c2ccc(C(=O)Nc3ccc(-c4ccc(-c5c[nH]c([C@@H]6CCCN6C(=O)[C@@H](NC(=O)OC)C(C)C)n5)cc4)c(OC(F)(F)F)c3)cn2)C[C@@H]1C ?
[A] 6.98
